Molecular target: NRZ D79A (zebrafish (Danio rerio)) (UniProt Q8UWD5)
Test: ITC; MicroCal iTC200, 25 °C; NRZ (wt, D79A or R86A) at 30 μM in 25 mM HEPES pH 7.5, 150 mM NaCl, 2 mM BME; BH3 peptide at 300 μM titrated in 19 injections of 2.0 μl; triplicate
MEASURE_NAME: Kd (nM)

[
  {
    "BINDER": "NMRVTQTIGRQLAQIGDEMDNKWRQE [zBik BH3 motif peptide]",
    "UNIT_SYMBOL": "nM",
    "Kd": 14
  },
  {
    "BINDER": "EEQAVERVAVQLRTIGDEMNAVFLQR [zPuma BH3 motif peptide]",
    "UNIT_SYMBOL": "nM",
    "Kd": 117
  },
  {
    "BINDER": "ELCDPSHKRLAQCLQQIGDELDGNAQLQ [zBax BH3 motif peptide]",
    "UNIT_SYMBOL": "nM",
    "Kd": 264
  }
]

[a] EQTAVVECAQQLRNIGDLLNWKYKLL [zNoxa BH3 motif peptide]
[b] ALPPEMVVARELRRIGDEFNRLYCEA [zBim BH3 motif peptide]
QUERY: Which gives the smaller Kd number: a or b ? Give the label of your selection.
RESULT: b
